- target.system: Gonadotropin-releasing hormone receptor (Rattus norvegicus)
- Sequence (P30969 whole entry): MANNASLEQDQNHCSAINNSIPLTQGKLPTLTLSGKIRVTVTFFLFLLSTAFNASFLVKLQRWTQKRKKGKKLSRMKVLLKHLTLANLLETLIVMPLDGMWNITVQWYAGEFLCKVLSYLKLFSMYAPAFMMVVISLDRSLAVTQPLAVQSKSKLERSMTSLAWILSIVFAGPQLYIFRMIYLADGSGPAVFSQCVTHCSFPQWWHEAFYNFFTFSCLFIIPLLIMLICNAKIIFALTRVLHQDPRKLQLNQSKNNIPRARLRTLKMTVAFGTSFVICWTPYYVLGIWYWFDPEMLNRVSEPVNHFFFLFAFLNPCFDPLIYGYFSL
- test.name: In vitro binding affinity to rat luteinizing hormone-releasing hormone (LHRH) receptor cloned in CHO cells
quantity: Ki
Remember to quote the unit after the number.

The cases that follow already have their Ki on record.
compound	Ki
CC[C@H]1OC(=O)[C@H](C)[C@@H](OC(=O)N2C(=O)OC[C@@H]2C)[C@H](C)[C@@H](OC2O[C@H](C)C[C@H](N(C)CC3CC3)[C@H]2O)[C@@](C)(OC)C[C@@H](C)C(=O)[C@H](C)[C@H]2N(CCc3ccc(F)c(Cl)c3)C(=O)O[C@]12C (some centres undefined)	0.107 nM
CC[C@H]1OC(=O)[C@H](C)[C@@H](OC(=O)N2C(=O)OC[C@@H]2C)[C@H](C)[C@@H](OC2O[C@H](C)C[C@H](N(C)C(C)C)[C@H]2O)[C@@](C)(OC)C[C@@H](C)C(=O)[C@H](C)[C@H]2N(CCc3ccc(Cl)cc3)C(=O)O[C@]12C (some centres undefined)	2.88 nM
CC[C@H]1OC(=O)[C@H](C)[C@@H](OC(=O)N2C(=O)OC[C@H]2C)[C@H](C)[C@@H](OC2O[C@H](C)C[C@H](N(C)C(C)C)[C@H]2O)[C@@](C)(OC)C[C@@H](C)C(=O)[C@H](C)[C@H]2N(CCc3ccc(Cl)cc3)C(=O)O[C@]12C (some centres undefined)	5.25 nM

QUERY: Which Ki value belongs to CC[C@H]1OC(=O)[C@H](C)[C@@H](OC(=O)N2C(=O)OC[C@@H]2C)[C@H](C)[C@@H](OC2O[C@H](C)C[C@H](N(C)C3CCCC3)[C@H]2O)[C@@](C)(OC)C[C@@H](C)C(=O)[C@H](C)[C@H]2N(CCc3ccc(Cl)c(Cl)c3)C(=O)O[C@]12C (some centres undefined) ?
RESULT: 0.692 nM

Ref: ChEMBL document CHEMBL1148475
